Test system: Vero E6 cells
TEST_PARAMETERS: read-out: Cytotoxicity CC50 Vero E6 MEM
ENDPOINT: CC50

Given Cl.c1ccc2c(Nc3ccc4[nH]ccc4c3)nc(-c3ccncc3)nc2c1 [BC18630] , respond with its CC50.
> 10 µM

---

Recorded EC50 for the following compounds
TESTED_TARGET: CHRM1 (Homo sapiens, UniProt P11229)
Sequence (P11229 whole entry): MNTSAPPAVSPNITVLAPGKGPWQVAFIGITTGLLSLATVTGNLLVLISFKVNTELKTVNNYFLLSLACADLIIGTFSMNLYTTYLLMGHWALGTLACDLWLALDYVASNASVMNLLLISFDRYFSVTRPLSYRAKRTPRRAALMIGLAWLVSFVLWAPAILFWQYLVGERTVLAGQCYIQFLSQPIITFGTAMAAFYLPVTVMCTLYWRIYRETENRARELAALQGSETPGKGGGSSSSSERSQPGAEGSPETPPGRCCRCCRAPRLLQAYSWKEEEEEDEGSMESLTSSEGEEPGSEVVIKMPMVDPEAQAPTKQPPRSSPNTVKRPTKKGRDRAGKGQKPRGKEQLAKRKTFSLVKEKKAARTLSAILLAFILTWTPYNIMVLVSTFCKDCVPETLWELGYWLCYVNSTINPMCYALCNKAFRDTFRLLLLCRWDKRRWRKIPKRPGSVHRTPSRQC
METHOD_DESCRIPTION: Safety47 Calcium Flux CHRM1
TEST_PARAMETERS: Agonist, read-out: RC50 (EC50)

Cl.c1ccc2c(Nc3ccc4[nH]ccc4c3)nc(-c3ccncc3)nc2c1 [BC18630] ... > 10 µM

Given Cl.Fc1cc(Nc2nc(-c3ccncc3)nc3ncccc23)cc2cc[nH]c12 [BC18813] , respond with its EC50.
> 10 µM

---

TESTED_TARGET: ADORA2A (Homo sapiens, UniProt P29274)
Sequence (P29274 whole entry): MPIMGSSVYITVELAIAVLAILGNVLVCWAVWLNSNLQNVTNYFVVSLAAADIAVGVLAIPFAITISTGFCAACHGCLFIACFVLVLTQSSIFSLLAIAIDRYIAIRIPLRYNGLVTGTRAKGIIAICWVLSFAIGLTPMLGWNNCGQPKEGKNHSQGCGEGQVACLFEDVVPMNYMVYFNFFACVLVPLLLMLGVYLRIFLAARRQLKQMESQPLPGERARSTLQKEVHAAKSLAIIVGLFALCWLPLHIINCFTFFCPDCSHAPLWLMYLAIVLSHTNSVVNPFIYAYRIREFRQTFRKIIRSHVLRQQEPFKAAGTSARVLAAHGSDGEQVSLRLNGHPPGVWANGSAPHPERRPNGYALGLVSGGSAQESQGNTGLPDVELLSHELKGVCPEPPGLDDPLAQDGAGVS
METHOD_DESCRIPTION: Safety47 Calcium Flux ADORA2A
TEST_PARAMETERS: Antagonist, read-out: RC50 (IC50)
pIC50: −log10 of the molar value.
ENDPOINT: pIC50

Cl.Fc1cc(Nc2nc(-c3ccncc3)nc3ncccc23)cc2cc[nH]c12 ... < 5.00

Read the next record carefully.
Given Cl.c1ccc2c(Nc3ccc4[nH]ccc4c3)nc(-c3ccncc3)nc2c1 , respond with its pIC50.
< 5.00

---

TESTED_TARGET: COX2 (Homo sapiens, UniProt P35354)
Sequence (P35354 18-604): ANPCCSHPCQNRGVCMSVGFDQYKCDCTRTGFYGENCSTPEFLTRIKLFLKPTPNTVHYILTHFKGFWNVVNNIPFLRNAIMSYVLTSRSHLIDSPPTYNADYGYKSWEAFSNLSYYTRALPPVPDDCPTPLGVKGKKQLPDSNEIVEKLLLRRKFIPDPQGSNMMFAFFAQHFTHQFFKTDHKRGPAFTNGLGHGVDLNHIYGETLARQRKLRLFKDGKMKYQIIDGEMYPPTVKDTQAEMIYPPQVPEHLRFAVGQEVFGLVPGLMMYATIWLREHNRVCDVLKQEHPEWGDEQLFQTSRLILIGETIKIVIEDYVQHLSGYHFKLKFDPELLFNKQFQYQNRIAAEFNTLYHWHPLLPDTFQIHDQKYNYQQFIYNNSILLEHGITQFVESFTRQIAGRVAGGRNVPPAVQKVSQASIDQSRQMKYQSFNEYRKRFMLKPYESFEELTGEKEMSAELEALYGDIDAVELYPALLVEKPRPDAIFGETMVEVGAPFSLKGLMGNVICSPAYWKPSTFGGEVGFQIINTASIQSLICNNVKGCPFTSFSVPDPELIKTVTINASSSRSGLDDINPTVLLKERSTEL
pIC50: −log10 of the molar value.
ENDPOINT: pIC50

Cl.c1ccc2c(Nc3ccc4[nH]ccc4c3)nc(-c3ccncc3)nc2c1 ... < 5.00

Read the next record carefully.
Given Cl.Fc1cc(Nc2nc(-c3ccncc3)nc3ncccc23)cc2cc[nH]c12 , respond with its pIC50.
< 5.00

---

TESTED_TARGET: CHRM3 (Homo sapiens)
Sequence (P20309 whole entry): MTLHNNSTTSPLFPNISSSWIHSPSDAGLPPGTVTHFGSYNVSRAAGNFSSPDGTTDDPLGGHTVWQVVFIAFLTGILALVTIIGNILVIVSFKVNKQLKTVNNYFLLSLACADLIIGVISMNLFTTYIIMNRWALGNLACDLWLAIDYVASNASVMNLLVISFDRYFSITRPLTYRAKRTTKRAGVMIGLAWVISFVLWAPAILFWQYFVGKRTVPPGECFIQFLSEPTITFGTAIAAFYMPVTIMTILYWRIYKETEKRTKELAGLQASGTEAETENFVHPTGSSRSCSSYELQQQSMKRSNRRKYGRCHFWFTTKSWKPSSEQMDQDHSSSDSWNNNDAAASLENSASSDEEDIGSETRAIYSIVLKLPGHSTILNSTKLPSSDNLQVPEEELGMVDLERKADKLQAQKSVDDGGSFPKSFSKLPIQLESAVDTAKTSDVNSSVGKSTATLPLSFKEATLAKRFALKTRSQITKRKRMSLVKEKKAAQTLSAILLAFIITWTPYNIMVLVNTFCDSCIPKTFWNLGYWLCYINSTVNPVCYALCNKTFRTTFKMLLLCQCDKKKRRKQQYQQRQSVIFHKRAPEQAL
METHOD_DESCRIPTION: Safety47 Calcium Flux CHRM3
TEST_PARAMETERS: Agonist, read-out: RC50 (EC50)
ENDPOINT: EC50

Cl.Fc1cc(Nc2nc(-c3ccncc3)nc3ncccc23)cc2cc[nH]c12 ... > 10 µM

Read the next record carefully.
Given Cl.c1ccc2c(Nc3ccc4[nH]ccc4c3)nc(-c3ccncc3)nc2c1 , respond with its EC50.
> 10 µM
